assay: in vitro; conditions: mouse
readout-label: CC50 (µg/mL)
Answer with a number only, understood to be in µg/mL.

[Q] # lookup: CC50 of CC(=O)Oc1ccccc1C(=O)O [aspirin]
[A] 1500

[Q] Value lookup for CC50; key = CC(=O)Nc1ccc(O)cc1 [acetaminophen]
[A] 1000

Value source: patent US20070202138A1
